- PROTOCOL DESCRIPTION: Plasmodium falciparum growth inhibition, primary screen, strain 3D7, DAPI fluorescence, 100 nL (AID 1184);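 also: parasites grown inside human red blood cells in medium with human serum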
- RECORDED CONDITIONS: P. falciparum 3D7 growth, 3 d, higher = more signal
METRIC: z-score

CON=C(C)CCC(=O)OC[C@H]1O[C@H](c2ccccc2)C=C[C@@H]1Oc1ccc(OC)cc1 : -0.442
O=c1n(Cc2cc3c(cc2Cl)OCO3)c(=O)n2n1CC[C@@H]1C(=NOC[C@@H](O)COCc3ccco3)[C@H]3O[C@H]3[C@@H](O)[C@@H]12 : -0.181
C[C@H]1CC[C@H]2C(=O)O[C@H](COc3ccc(C(C)(C)C)cc3)CN2[C@@H]1c1ccc(Br)cc1 : -0.398
O=C1CCCC(C2=CCCCC2=O)C1 (stereo not drawn) : 0.488
C#CCCCON=C1[C@H]2CCn3c(=O)n(C)c(=O)n3[C@H]2[C@H](O)[C@@H]2O[C@H]12 : 0.275
COC(=O)[C@H](C)NC(=O)CCC1CC(OC(=O)NCc2ccc3c(c2)OCO3)CC2(CCCC(COC(=O)NCC(c3ccccc3)c3ccccc3)O2)O1 (stereo partly drawn) : -1.77
C=Cc1ccc([C@H]2N[C@H](C(=O)O)CC[C@@H]2C)cc1 : 2.18
COc1cccc([C@H]2Oc3ccc(OC)cc3C(=NO[C@H](C)c3cn([C@H](CO)Cc4ccccc4)nn3)[C@@H]2O)c1 : 0.24

* * *

- MEASUREMENT TARGET: Neurogenic locus notch homolog protein 3 (Homo sapiens) (UniProt Q9UM47)
- Sequence (Q9UM47 whole entry, looked up): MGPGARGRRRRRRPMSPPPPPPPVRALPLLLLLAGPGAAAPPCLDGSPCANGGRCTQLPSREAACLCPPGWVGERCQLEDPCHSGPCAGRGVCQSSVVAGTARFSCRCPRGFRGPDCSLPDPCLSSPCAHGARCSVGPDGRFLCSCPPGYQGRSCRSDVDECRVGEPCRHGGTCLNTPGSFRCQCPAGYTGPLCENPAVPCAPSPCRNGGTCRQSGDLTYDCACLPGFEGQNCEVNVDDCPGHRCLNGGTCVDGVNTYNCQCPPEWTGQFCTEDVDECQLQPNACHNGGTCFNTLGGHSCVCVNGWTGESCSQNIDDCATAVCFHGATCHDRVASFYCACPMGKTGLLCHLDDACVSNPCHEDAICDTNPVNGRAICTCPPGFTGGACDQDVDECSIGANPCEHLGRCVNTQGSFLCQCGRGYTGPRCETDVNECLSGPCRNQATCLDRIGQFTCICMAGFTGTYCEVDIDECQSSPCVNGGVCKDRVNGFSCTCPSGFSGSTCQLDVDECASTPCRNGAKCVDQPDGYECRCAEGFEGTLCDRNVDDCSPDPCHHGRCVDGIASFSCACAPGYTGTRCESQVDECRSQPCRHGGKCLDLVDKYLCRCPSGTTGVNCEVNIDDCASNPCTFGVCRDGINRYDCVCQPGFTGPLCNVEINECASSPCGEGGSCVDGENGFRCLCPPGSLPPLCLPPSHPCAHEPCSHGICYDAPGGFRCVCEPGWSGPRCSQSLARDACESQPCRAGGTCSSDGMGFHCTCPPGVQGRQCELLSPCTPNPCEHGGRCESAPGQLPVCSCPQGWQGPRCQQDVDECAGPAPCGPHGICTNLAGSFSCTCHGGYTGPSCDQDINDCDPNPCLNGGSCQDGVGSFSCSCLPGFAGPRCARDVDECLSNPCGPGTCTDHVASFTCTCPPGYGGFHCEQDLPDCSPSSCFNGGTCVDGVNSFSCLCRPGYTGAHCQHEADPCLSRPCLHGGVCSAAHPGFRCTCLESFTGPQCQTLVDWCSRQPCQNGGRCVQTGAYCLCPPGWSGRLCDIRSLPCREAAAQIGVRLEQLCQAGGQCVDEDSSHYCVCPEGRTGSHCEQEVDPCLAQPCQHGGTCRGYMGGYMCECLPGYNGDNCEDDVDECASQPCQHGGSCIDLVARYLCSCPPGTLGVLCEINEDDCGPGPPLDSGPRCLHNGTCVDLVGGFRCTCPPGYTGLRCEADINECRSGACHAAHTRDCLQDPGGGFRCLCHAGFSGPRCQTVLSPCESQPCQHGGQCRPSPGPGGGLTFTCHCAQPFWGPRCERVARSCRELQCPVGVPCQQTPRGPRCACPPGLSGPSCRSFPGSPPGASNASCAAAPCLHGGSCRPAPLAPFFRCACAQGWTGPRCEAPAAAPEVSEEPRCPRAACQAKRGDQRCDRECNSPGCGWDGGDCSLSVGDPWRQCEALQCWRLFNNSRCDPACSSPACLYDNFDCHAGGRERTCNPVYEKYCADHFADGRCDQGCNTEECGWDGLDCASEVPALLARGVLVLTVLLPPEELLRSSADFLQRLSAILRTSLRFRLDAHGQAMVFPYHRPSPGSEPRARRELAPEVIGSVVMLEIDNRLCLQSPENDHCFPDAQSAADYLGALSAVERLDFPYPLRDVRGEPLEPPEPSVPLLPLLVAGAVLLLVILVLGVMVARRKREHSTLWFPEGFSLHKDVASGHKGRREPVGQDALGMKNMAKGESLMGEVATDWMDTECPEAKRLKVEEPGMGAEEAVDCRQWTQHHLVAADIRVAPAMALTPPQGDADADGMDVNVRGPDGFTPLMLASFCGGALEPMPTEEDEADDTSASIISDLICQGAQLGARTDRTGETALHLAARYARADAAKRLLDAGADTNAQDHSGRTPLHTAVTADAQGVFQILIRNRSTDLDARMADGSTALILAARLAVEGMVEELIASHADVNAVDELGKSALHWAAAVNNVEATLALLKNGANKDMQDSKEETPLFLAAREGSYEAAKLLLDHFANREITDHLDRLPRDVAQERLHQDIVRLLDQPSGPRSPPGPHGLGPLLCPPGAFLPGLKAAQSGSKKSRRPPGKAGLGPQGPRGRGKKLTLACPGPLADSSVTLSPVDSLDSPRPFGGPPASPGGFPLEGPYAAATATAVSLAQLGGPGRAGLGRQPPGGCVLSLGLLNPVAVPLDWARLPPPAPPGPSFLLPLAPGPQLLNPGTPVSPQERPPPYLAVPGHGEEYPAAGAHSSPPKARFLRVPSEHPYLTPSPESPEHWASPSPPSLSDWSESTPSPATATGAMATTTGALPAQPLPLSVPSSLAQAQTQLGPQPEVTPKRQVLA
- PROTOCOL DESCRIPTION: NOTCH3 binders on small-molecule microarray, primary screen, biochemical, 635/667 nm fluorescence (AID 1096)
- RECORDED CONDITIONS: NOTCH3 binding, 635 nm fluorescence, higher = more signal
I would appreciate it if you labelled entries t when composite z-score is -0.3 or higher, otherwise f.

CCCNC(=O)OC[C@H]1O[C@H](CCON=C(C)CCN2CCc3nc(CC)c(CC)cc3C2)C=C[C@@H]1Oc1ccc(OC)cc1 : t
CCN1C(=O)[C@H]2[C@H]3[C@H](O)[C@H](O)CC(=O)[C@H]3CC[C@H]2C1=O : t
CO[C@@H]1C=CCC(=O)N[C@@H](C)C(=O)OC[C@@H](OC)[C@H](C)CCCC(=O)OC[C@H]1C : f
O=C(NN=C1C[C@@H](O)[C@@H](O)[C@@H]2[C@@H]3C(=O)N(C4CCCCC4)C(=O)[C@@H]3CC[C@H]12)OCc1ccccc1 : t
O=C1OCCC=C1C(O)CCc1ccccc1 (stereo not given) : t

* * *

- System: Neuregulin-1 EGF-like domain
- PROTOCOL DESCRIPTION: binders of neuregulin-1 EGF-like domain, primary screen, biochemical, small-molecule microarray, 635 nm fluorescence (AID 1081);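 also: binding of the protein to compounds printed on small-molecule microarray slides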
- RECORDED CONDITIONS: small-molecule microarray binding, higher = more signal
composite z-score by entry:
METRIC: composite z-score

CO[C@H]1COC(=O)[C@H](C)NC(=O)[C@@H](C)COC(=O)[C@H]2CCCN2C(=O)CC=C[C@H]1C : 0.175
O=C1[C@H]2[C@H]3[C@H](O)[C@H](O)CC(=NOCc4ccccc4)[C@@H]3CC[C@H]2C(=O)N1C[C@@H]1CCCO1 : -0.288
CCOC(=O)[C@H](Cc1ccccc1)NC(=O)CCC1CC(OC(=O)NCc2cccc3ccccc23)CC2(CCCC(COC(=O)NCCC(C)C)O2)O1 (some centres not stated) : 0.751
CO[C@H]1COC(=O)CCC[C@@H](C)[C@H](OC)COC(=O)[C@@H](C)NC(=O)CC=C[C@@H]1C : -0.723
CCOC(=O)[C@H](Cc1ccccc1)NC(=O)CCC1CC(OC(=O)NCc2cccc3ccccc23)CC2(CCCC(COC(=O)NCc3ccccc3)O2)O1 (some centres not stated) : 0.686
COc1cccc([C@H]2Oc3ccc(OC)cc3C(=NOC[C@@H](C)[C@H](OCc3ccccc3)C(C)C)[C@@H]2O)c1 : 0.686
CO[C@H](C1CCCCC1)[C@H](C)C=CCC(=O)OCCCc1ccccc1 : -0.647
